All figures here come from patent US7977322B2.

- target-system: ΔF508-CFTR (Homo sapiens, UniProt P13569, DEL508-508)
- Sequence (P13569 with tags, fused parts or gaps DEL508-508): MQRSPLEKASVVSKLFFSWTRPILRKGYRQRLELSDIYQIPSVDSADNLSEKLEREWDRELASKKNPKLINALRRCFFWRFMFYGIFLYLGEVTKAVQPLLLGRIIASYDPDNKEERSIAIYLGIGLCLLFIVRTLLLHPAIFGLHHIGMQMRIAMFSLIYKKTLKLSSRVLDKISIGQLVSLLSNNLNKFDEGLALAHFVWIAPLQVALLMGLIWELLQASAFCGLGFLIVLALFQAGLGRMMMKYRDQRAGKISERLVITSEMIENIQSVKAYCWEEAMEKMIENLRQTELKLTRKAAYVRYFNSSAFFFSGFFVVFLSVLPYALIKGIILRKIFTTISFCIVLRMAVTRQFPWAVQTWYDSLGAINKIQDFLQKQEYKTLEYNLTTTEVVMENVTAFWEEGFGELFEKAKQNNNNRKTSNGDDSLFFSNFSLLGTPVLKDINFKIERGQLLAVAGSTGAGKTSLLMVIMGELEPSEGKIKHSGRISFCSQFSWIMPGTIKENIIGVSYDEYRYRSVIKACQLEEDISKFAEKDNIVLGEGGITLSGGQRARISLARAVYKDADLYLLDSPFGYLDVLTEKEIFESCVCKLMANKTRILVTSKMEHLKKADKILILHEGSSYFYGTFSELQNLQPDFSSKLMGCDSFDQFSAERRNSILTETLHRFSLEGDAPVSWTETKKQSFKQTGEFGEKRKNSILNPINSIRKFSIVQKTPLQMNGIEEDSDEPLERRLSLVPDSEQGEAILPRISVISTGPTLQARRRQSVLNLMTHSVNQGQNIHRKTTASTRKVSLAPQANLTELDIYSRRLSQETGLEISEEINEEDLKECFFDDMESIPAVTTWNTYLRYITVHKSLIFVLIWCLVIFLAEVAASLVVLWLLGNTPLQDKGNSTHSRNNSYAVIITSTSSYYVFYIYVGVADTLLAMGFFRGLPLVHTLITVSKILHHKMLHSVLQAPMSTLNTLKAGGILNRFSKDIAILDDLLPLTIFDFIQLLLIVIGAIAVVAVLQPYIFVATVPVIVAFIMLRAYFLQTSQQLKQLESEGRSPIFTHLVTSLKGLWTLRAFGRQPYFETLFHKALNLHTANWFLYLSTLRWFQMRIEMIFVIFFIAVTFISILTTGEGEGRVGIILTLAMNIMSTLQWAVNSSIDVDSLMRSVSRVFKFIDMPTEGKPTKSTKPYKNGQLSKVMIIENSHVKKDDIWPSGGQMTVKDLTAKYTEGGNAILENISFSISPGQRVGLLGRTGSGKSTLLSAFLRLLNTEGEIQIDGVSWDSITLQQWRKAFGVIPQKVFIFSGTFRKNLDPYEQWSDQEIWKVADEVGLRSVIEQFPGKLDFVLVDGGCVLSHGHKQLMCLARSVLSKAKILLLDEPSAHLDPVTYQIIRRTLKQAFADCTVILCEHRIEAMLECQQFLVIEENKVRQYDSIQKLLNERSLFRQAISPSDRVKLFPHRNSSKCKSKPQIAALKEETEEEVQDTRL
- protocol-summary: Membrane potential optical (FRET/VIPR) assay, identification of correction compounds
- stated-conditions: Table 3; assay not given
Listed below: EC50 values for each entry.

molecule	EC50
COc1ccc(C2(C(=O)Nc3ncc(Cc4ccncc4Cl)s3)CC2)cc1 [Example 262]	< 10 µM
O=C(Nc1ncc(C(NC2CC2)c2ccccc2Cl)s1)C1(c2ccc3c(c2)OCO3)CC1 (centres unmarked) [Example 415]	< 10 µM
C/C=C/c1cnc(NC(=O)C2(c3ccc4c(c3)OCO4)CC2)s1 [Example 386]	10 to 25 µM
COc1ccc(C2(C(=O)Nc3cnc(Cc4ccccc4Cl)s3)CC2)cc1 [Example 270]	< 10 µM
CN(C)CC(=O)Nc1ccc(C2(C(=O)Nc3ncc(Cc4ccccc4Cl)s3)CC2)cc1 [Example 312]	< 10 µM
COCC1CCCN1C(c1cnc(NC(=O)C2(c3ccc4c(c3)OCO4)CC2)s1)C(C)(C)C (centres unmarked) [Example 389]	10 to 25 µM
CC(C)(C)C(c1cnc(NC(=O)C2(c3ccc4c(c3)OCO4)CC2)s1)N1CCOCC1 (centres unmarked) [Example 394]	< 10 µM
COc1ccc(C2(C(=O)Nc3ncc(Cc4ncccc4OC)s3)CC2)cc1 [Example 263]	< 10 µM
